- target under test: Neu5Ac(a2-6)Gal(b1-4)GlcNAc(b1-2)Man(a1-6)[Man(a1-3)]Man(b1-4)GlcNAc(b1-4)GlcNAc
- test name: glycan array binding signal (z-score within array); higher = stronger binding
- conditions used: glycan notation: IUPAC condensed, linker removed
This excerpt belongs to a sample that is enriched for the strongest signals.
outcome measure: glycan array binding signal (z-score)

binder	glycan array binding signal (z-score)
LecB LY19 (Pseudomonas aeruginosa) (protein) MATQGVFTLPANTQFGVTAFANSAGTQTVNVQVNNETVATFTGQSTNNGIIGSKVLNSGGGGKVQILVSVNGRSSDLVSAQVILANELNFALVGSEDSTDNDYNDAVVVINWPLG	0.735

Please state glycan array binding signal (z-score) for every binder in the list that follows.
1. SJCP1531 (Schistosoma japonicum) (protein) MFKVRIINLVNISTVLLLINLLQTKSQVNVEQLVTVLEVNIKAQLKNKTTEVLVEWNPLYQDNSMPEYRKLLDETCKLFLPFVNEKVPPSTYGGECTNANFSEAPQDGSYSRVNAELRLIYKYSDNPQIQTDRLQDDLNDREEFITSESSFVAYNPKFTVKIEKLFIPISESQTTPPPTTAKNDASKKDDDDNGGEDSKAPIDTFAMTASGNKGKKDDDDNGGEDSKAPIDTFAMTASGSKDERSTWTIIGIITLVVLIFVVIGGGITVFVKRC
2. cupB6 (Pseudomonas aeruginosa), Q02SP7 (protein) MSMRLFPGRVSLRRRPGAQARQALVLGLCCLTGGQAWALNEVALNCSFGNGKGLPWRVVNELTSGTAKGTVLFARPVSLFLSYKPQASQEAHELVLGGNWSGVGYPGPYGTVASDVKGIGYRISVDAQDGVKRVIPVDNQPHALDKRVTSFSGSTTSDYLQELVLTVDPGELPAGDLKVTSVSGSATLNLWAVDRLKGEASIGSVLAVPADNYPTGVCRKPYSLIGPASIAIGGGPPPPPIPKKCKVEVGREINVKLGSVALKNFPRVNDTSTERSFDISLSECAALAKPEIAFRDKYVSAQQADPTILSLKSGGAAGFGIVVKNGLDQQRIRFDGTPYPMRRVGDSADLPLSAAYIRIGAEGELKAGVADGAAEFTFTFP

Response:
1. -1.2
2. 0.107
